Tested on: Acanthamoeba castellanii trophozoites
Test: CellTiter-Glo 2.0 trophocidal assay, A. castellanii
Type: cell-based
Details: Acanthamoeba castellanii, 72 h, CTG method, duplicate twofold serial dilutions from 10 µM, mean ± SD
Measured IC50 of individual entries

Below: 4 compounds and their reported IC50.
Cc1[nH]c2ccccc2c1CCNCc1ccc(/C=C/C(=O)NO)cc1 [Panobinostat] : > 10 µM
CNCC(=O)OCc1cccnc1N(C)C(=O)OC(C)[n+]1cnn(C[C@](O)(c2cc(F)ccc2F)[C@@H](C)c2nc(-c3ccc(C#N)cc3)cs2)c1 (some centres unmarked) [Isavuconazonium] : 0.09 µM
CC(=O)Oc1ccccc1C(=O)Nc1ncc([N+](=O)[O-])s1 [Nitazoxanide] : > 10 µM
C[C@@H](c1nc(-c2ccc(C#N)cc2)cs1)[C@](O)(Cn1cncn1)c1ccc(F)cc1F [Ravuconazole] : 0.02 µM

query: Test system Acanthamoeba castellanii trophozoites; read-out IC50; what value for CN(C/C=C/C#CC(C)(C)C)Cc1cccc2ccccc12 [Terbinafine] ?
result: 0.56 µM
